Catalogue of Minimal inhibitory concentration (MIC) readings, one per entry.
Tested on: Staphylococcus aureus ATCC 43300
condition_summary: MRSA; CLSI, Mueller–Hinton broth, 5 × 10^5 CFU/mL, 18 h 37 °C, by CO-ADD
Square brackets hold non-standard residues; d marks the D form. Peptide text beside a SMILES is read from it. * marks the point of attachment. Palmitoyl = CCCCCCCCCCCCCCCC(=O)*; Dab = NCC[C@H](N)C(=O)O
Express it in µg/mL; write the number only.

Please review the entries below; each comes with its answer.
1) CCCCCCCCCCCCCCCC(=O)NCC(=O)N[C@@H](CCCNC(=N)N)C(=O)NCC(=O)N[C@@H](CCCNC(=N)N)C(=O)O [Pal-GR4] (Palmitoyl-GRGR-OH)
8
2) CCCCCCCCCCCCCCCC(=O)NCC(=O)N[C@@H](CCCNC(=N)N)C(=O)N[C@@H](CCCNC(=N)N)C(=O)NCC(=O)NCC(=O)N[C@@H](CCCNC(=N)N)C(=O)NCC(=O)NCC(=O)N[C@@H](CCCNC(=N)N)C(=O)O [Pal-GR9] (Palmitoyl-GRRGGRGGR-OH)
8
3) CCCCCCCCCCCCCCCC(=O)NCC(=O)N[C@H](CCCNC(=N)N)C(=O)N[C@H](CCCNC(=N)N)C(=O)NCC(=O)NCC(=O)N[C@H](CCCNC(=N)N)C(=O)NCC(=O)NCC(=O)N[C@H](CCCNC(=N)N)C(=O)NCC(=O)N[C@H](CCCNC(=N)N)C(=O)NCC(=O)N[C@H](CCCNC(=N)N)C(=O)O [(D)-Pal-GR13] (Palmitoyl-G[dR][dR]GG[dR]GG[dR]G[dR]G[dR]-OH; C-terminus assumed)
2

**Query** Which Minimal inhibitory concentration (MIC) is reported with Staphylococcus aureus ATCC 43300 for this entry: CCCCCCCCCCCCCCCC(=O)NCC(=O)N[C@@H](CCN)C(=O)NCC(=O)N[C@@H](CCN)C(=O)O [Pal-G-Dab4] (Palmitoyl-G[Dab]G[Dab]-OH) ?
**Result** 32

Data provenance is paper PMC6399351.
